Entry source: PubChem BioAssay (NCI)

system: A498 renal; assay: NCI-60 one-dose screen, 48 h; conditions: 10 µM unless noted
Compounds without any hit were thinned out: in the full panel of roughly 83,000, 20% have a hit. Activity calls are given as the source filed them. How the source made its calls: active means growth percent below 10; inactive means the rest.
Possible outcomes: active, inactive

compound="CCC(C)[C@H]1OC(=O)[C@H](C(C)C)N(C)C(=O)[C@@H](C(C)C)OC(=O)[C@H](C(C)C)N(C)C(=O)[C@@H](C(C)CC)OC(=O)[C@H](C(C)C)N(C)C1=O (stereo not given in full)" class_assignment=active
compound=COCCOc1ccc(-c2csc(NC(C)=O)n2)cc1NS(=O)(=O)c1cccc2c(N(C)C)cccc12 class_assignment=inactive
compound="CCCC(=O)NC(c1cccnc1)c1cc(C(C)=O)c2cccnc2c1O (stereo not given)" class_assignment=inactive
compound=O=c1cc(-c2ccccc2)nc2sc(-c3c[nH]c4ccc(F)cc34)nn12 class_assignment=inactive
compound=CC(=O)NC(C)(C)C(=O)N1CCC[C@H]1C(=O)NC(C)(C)C(=O)N[C@@H](C)C(=O)NC(C)(C)C(=O)NC(C)(C)C(=O)N[C@@H](CCC(N)=O)C(=O)NC(C)(C)C(=O)N[C@H](C(=O)NC(C)(C)C(=O)NCC(=O)N[C@@H](CC(C)C)C(=O)NC(C)(C)C(=O)N1CCC[C@H]1C(=O)N[C@H](C(=O)NC(C)(C)C(=O)NC(C)(C)C(=O)N[C@@H](CCC(N)=O)C(=O)N[C@@H](CCC(N)=O)C(=O)N[C@H](CO)Cc1ccccc1)C(C)C)C(C)C class_assignment=inactive

----------
Tested on: CAKI-1 renal
Experiment: NCI-60 one-dose screen, 48 h (100 = growth as untreated, 0 = no growth, -100 = all killed)
Conditions: 10 µM
Method: Growth inhibition of the CAKI-1 human tumor cell line is measured as a screen for anti-cancer activity. Cells are grown in 96 well plates and exposed to the test compound for 48 hours. Compounds are tested at a single concentration, which is 10^-5 M for most compounds. The reported endpoint is percent growth (GI% or GIPRCNT), where numbers from 0 - 100% represent growth inhibition, and numbers from -100% - 0 represent cell death. For example, a value of 40 represents 60% growth inhibition. […]
The panel holds about 83,000 compounds, 20% with a hit somewhere; the sample as a whole holds those more often.
OBSERVABLE: growth (%)

mol_smiles=C=CCn1c(SCC(=O)Nc2cccc(C(=O)/C=C/c3ccccc3)c2)nc2ccccc2c1=O observed=80.1
mol_smiles=Cc1ccc(NC(=O)c2ccc(CN3CCN(C)CC3)c(I)c2)cc1Oc1ccc(-c2[nH]nc3ncnc(N)c23)cc1 observed=89.9
mol_smiles=O=C1Nc2ccc(Cl)cc2/C1=C/c1ccc(OCc2ccc(Br)cc2F)cc1 observed=84.3
mol_smiles=COC(=O)Nc1ccc(-c2nc(-c3cccc(O)c3)c(-c3ccnc(Br)c3)[nH]2)cc1 observed=45.6
mol_smiles=COc1cc2cc(Oc3ccc(NC(=O)Nc4cccc(C(F)(F)F)c4)cc3)c(C)nc2cc1OCCN(C)C observed=89.9

----------
system: EKVX NSCLC; test: NCI-60 one-dose screen, 48 h (100 = growth as untreated, 0 = no growth, -100 = all killed); conditions: 10 µM unless noted
About 83,000 compounds went through this panel and 20% of them were active in at least one assay; those are over-represented in the sample as a whole.
Label 1 when growth is at or above 80%; anything below gets -1.

molecule="Cc1ccccc1NC1CC(=O)N(c2ccc(Cl)cc2Cl)C1=O (centres undefined)" class_assignment=1
molecule=O=c1cc(-c2ccccc2)nc2sc(-c3c[nH]c4ccc(Br)cc34)nn12 class_assignment=1
molecule=CC(=O)Nc1cccc(-n2cnc3cc(-c4ccc(O)cc4)ccc32)c1 class_assignment=-1
molecule=C#C[C@]1(O)CC[C@H]2[C@@H]3CC=C4c5sc(-c6ccc(OC)cc6)nc5CC[C@]4(C)[C@H]3CC[C@@]21C class_assignment=-1
molecule=COc1cc(/C=N/n2cnc3oc(-c4ccccc4)cc3c2=N)cc(CN2CCCCC2)c1O class_assignment=-1
molecule=COc1ccc(Cn2cc3c(c2-c2cc(OC)c(OC)c(OC)c2)CCCc2cnoc2-3)cc1 class_assignment=-1
molecule="NC(=O)N1N=C(c2cc3ccccc3oc2=O)CC1c1cn(-c2ccccc2)nc1-c1ccc(Cl)cc1 (centres undefined)" class_assignment=-1
molecule=C=CCn1c(SCC(=O)Nc2cccc(C(=O)/C=C/c3ccc(Cl)cc3)c2)nc2ccccc2c1=O class_assignment=1

----------
test system: OVCAR-8 ovarian; experiment: NCI-60 one-dose screen, 48 h (100 = growth as untreated, 0 = no growth, -100 = all killed); conditions: 10 µM unless noted
Compounds without any hit were thinned out: in the full panel of roughly 83,000, 20% have a hit. The source made the active and inactive calls. How the source made its calls: active means growth percent below 10; inactive means the rest.
Items are presented alongside their recorded growth.
OBSERVABLE: growth

compound=CCc1ccc(NC(=O)N[C@@H](Cc2cccc(F)c2)C(=O)N[C@@H]2C(=O)N3CCC[C@H]3C(=O)N3CCCC[C@H]3C(=O)N[C@@H](CO)C(=O)N3C[C@H](C)C[C@H]3C(=O)O[C@H]2C)c(F)c1 assay_system="OVCAR-8 ovarian" observed="20.9% (inactive)"
compound=COc1cc(O)c2c(c1)[C@H]1O[C@@H]1C[C@H](O)[C@H](O)C(=O)/C=C\C[C@H](C)OC2=O assay_system="OVCAR-8 ovarian" observed="59.3% (inactive)"
compound="CCN1C(=O)N(CC)C2SC(N/N=C/c3ccc(F)cc3)=NC21 (centres undefined)" assay_system="OVCAR-8 ovarian" observed="2.03% (active)"
compound=C=C1C(=O)O[C@@H]2/C=C(/C)C3=CC(=O)[C@@](C)(C[C@H](OC(=O)/C(C)=C\C)[C@@H]12)O3 assay_system="OVCAR-8 ovarian" observed="8.15% (active)"

----------
test system: HCT-15 colon; assay: NCI-60 one-dose screen, 48 h; settings: 10 µM unless noted
The panel holds about 83,000 compounds, 20% with a hit somewhere; the sample as a whole holds those more often. Active and inactive are the calls of the source. The calls were made as follows: active = growth percent below 10; inactive = the rest.
Possible outcomes: y for active, n for inactive

compound=COc1ccc(-c2no[n+]([O-])c2Nc2ccccc2Br)cc1 class_assignment=n
compound=CCn1c2ccc(/C=N/NS(=O)(=O)CCN(C)C)cc2c2cc(/C=N/NS(=O)(=O)CCN(C)C)ccc21 class_assignment=n
compound=N#Cc1c(-c2ccccc2)cc(-c2c[nH]c3ccccc23)nc1-c1c[nH]c2ccccc12 class_assignment=n
compound=Oc1ccc(CSc2nnc(-c3ccc(Cl)cc3)o2)c2cccnc12 class_assignment=n
compound=CN(c1ccc(Br)cc1)S(=O)(=O)c1ccc(-c2cnc(C3CC3)o2)cc1 class_assignment=n
compound=COc1ccc(-c2nnc(SCc3ccc(O)c4ncccc34)n2-c2ccccc2)cc1 class_assignment=y
compound="CCOC(=O)/C(F)=C/C1CC1CCc1cccc(C(F)(F)F)c1 (stereo not given)" class_assignment=n
compound=Cc1cc(F)cc(NS(=O)(=O)c2ccc(-c3cnc(C4CC4)o3)cc2)c1 class_assignment=n
compound=Oc1ccc(CSc2nnc(-c3cnccn3)o2)c2cccnc12 class_assignment=n
compound=CS(=O)(=O)c1ccc(-c2nn(-c3ccccc3)cc2/C=N/NC(=O)c2ccncc2)cc1 class_assignment=n
compound="CC(C)(C)n1nnnc1C(Nc1nccs1)c1cc2cccc3ccc4cccc1c4c32 (stereo not given)" class_assignment=n
compound=O=S(=O)(NCCCNc1nccc(-n2cnc3ccccc32)n1)c1ccc(F)cc1 class_assignment=n
compound=Cc1cn(-c2cc(NC(=O)c3cncc(C#Cc4cnc5ccc(O[C@@H]6CCOC6)nn45)c3)cc(C(F)(F)F)c2)cn1 class_assignment=y
compound=c1cncc(-c2cn3nc(-c4c[nH]c5ccccc45)sc3n2)c1 class_assignment=n
compound=O=S(=O)(Nc1cc(Cl)c(F)c(Cl)c1)c1ccc(-c2cnc(C3CC3)o2)cc1 class_assignment=n
compound=COc1ccc(-c2cc(-c3cccc4ccccc34)n3c(n2)nc2ccccc23)cc1 class_assignment=n
compound=O=c1oc2ccc(-c3ccc(F)cc3F)cc2c(=O)n1-c1cccc(C(F)(F)F)c1 class_assignment=y
compound=C/C(=C(/c1ccc(O)cc1)c1ccc(OCCN2CCCCCC2)cc1)c1ccccc1 class_assignment=y
compound=Cc1ccc(Nc2ncnc3c2c(C)nn3-c2ccc([N+](=O)[O-])cc2)cc1 class_assignment=n
compound=COc1ccc(S(=O)(=O)NCCCNc2nccc(-n3cnc4ccccc43)n2)cc1 class_assignment=n

----------
Tested on: NCI/ADR-RES ovarian
Assay: NCI-60 one-dose screen, 48 h (100 = growth as untreated, 0 = no growth, -100 = all killed)
Details: 10 µM unless noted
Experimental: Growth inhibition of the NCI/ADR-RES human […] tumor cell line is measured as a screen for anti-cancer activity. Cells are grown in 96 well plates and exposed to the test compound for 48 hours. Compounds are tested at a single concentration, which is 10^-5 M for most compounds. The reported endpoint is percent growth (GI% or GIPRCNT), where numbers from 0 - 100% represent growth inhibition, and numbers from -100% - 0 represent cell death. For example, a value of 40 represents 60% growth inhibition. […]
About 83,000 compounds went through this panel and 20% of them were active in at least one assay; those are over-represented in the sample as a whole.
OBSERVABLE: growth (%)

compound=O=C1C[C@@H](c2ccccc2)Oc2c(Cc3ccccc3O)c(O)c(Cc3cc(Cc4cc(Cc5ccccc5O)ccc4O)ccc3O)c(O)c21 observable=growth observed=106
compound=O=C(NNc1nc2cc(F)ccc2n2cncc12)c1cnccn1 observable=growth observed=12.2
compound=COc1ccc2c(c1)c(-c1nnc(N)nc1-c1cn(C)c3ccccc13)cn2C observable=growth observed=90.5
compound=Cc1ccc(NC(=O)c2cc(/C=C/C(=O)NO)cc(C(F)(F)F)c2)cc1Nc1nccc(-c2cccnc2)n1 observable=growth observed=87.8
compound=C=CCn1c(SCC(=O)Nc2cccc(C(=O)/C=C/c3ccc(Br)cc3)c2)nc2ccccc2c1=O observable=growth observed=91.5
compound=CNC(=O)c1cc(Oc2ccc3nc(NC(=O)c4cc(C)cc(C)c4)sc3c2)ccn1 observable=growth observed=76
compound=Cc1cc(O)c(=O)cc2c1C[C@H]1CC(C)(C)/C=C/C[C@]3(C)Oc4cc(=O)c(O)cc(C)c4C[C@H]3C[C@H](O)[C@@]1(C)O2 observable=growth observed=1.38
compound=O=C(CSc1nnc(-c2ccc(Cl)cc2)n1-c1ccccc1)Nc1ccc(F)cc1 observable=growth observed=77.9
compound=COc1cc(O)c2c(c1)/C=C/C[C@H](O)[C@H](O)C(=O)/C=C\C[C@H](C)OC2=O observable=growth observed=8.99
compound="CC1COc2c(N3CCN(C)CC3)c(F)cc3c(=O)c(C(=O)N/N=C/c4cc[nH]c4)cn1c23 (stereo not drawn)" observable=growth observed=94.2
compound=COc1ccc(NC(=O)[C@H](C)NC(=O)OC(C)(C)C)cc1C(=O)Nc1cccc(-c2cc(=O)c3c(OC)c(OC)c(OC)cc3o2)c1 observable=growth observed=61.4
compound=O=C1[C@@H]2Cc3c([nH]c4ccccc34)[C@H](c3c(Cl)cccc3Cl)N2C(=O)CN1C1CCN(Cc2ccccc2)CC1 observable=growth observed=18.5
compound=C=CCn1c(SCC(=O)c2ccc(OC)cc2)nnc1-c1ccc(OC)cc1 observable=growth observed=94.9
compound=CCNCCCn1c2c(c3cc(OC)c(OC)cc3c1=O)C(=O)c1cc(OC)cnc1-2 observable=growth observed=26.9
compound="CCN1C(=O)N(CC)C2C1NN=C1SC(c3ccccc3)=CC(=O)N12 (stereo not drawn)" observable=growth observed=19.2
compound=Cc1nn(-c2ccccc2)cc1/C=N/Nc1nc(Nc2ccccc2)nc(Nc2ccc(S(N)(=O)=O)cc2)n1 observable=growth observed=76.4
compound=C=C(C)[C@@H]1CC[C@]2(C(=O)ON)CC[C@]3(C)[C@H](CC[C@@H]4[C@@]5(C)C/C(=C/c6ccc(Br)cc6)C(=O)C(C)(C)[C@@H]5CC[C@]43C)[C@@H]12 observable=growth observed=74.9
compound=CN1C(=O)/C(=C/C=C/c2ccco2)SC1=S observable=growth observed=75.6
